- systemTested: HLA-A*1101 (human)
- assayRemarks: competition with 125I-labeled standard peptide on purified HLA, gel filtration
As shown below, each of these binders has a reported binding affinity ratio (IC50 of standard peptide / IC50 of test peptide) value.
measuredEndpoint: binding affinity ratio (IC50 of standard peptide / IC50 of test peptide)

>  <binder>
YVPESDAAAR (modifications not checked) [HCV peptide … (HCV polyprotein position 1939)]

>  <observedValue>
0.0001

$$$$
>  <binder>
VAYQATVCAR (modifications not checked) [HCV peptide … (HCV polyprotein position 1592)]

>  <observedValue>
0.0036

$$$$
>  <binder>
WLLSPRGSR (modifications not checked) [HCV peptide … (HCV polyprotein position 96)]

>  <observedValue>
0.0005

$$$$
>  <binder>
TSERSQPRGR (modifications not checked) [HCV peptide … (HCV polyprotein position 52)]

>  <observedValue>
0.0001

$$$$
